Tested on: HS 578T
Test: cells
Conditions: Homo sapiens, 48 h, read-out: LC50
assay_endpoint: CC50

COc1cc(C2CC(c3ccc(Cl)cc3)=Nc3c(N)nc(N)nc3N2)ccc1Oc1nc(Nc2ccc(F)cc2)nc(N(C)C)n1 (stereo not shown) [29e]
> 100 µM
Cc1ccc(C2CC(c3ccc(Nc4nc(NCCO)nc(Nc5ccc(Cl)cc5)n4)cc3)=Nc3c(N)nc(N)nc3N2)cc1 (stereo not shown) [33b]
> 100 µM
COc1cc(/C=C/C(=O)c2cc(OC)c(OC)c(OC)c2)ccc1Oc1nc(NCCO)nc(N2CCOCC2)n1 [20d]
> 100 µM
CN(C)c1nc(NCCNS(=O)(=O)c2ccc(C(=O)/C=C/c3ccc(F)cc3)cc2)nc(N2CCOCC2)n1 [23f]
> 100 µM
CN(C)c1nc(NCCNS(=O)(=O)c2ccc(C(=O)/C=C/c3ccc(Cl)cc3)cc2)nc(Nc2ccc(F)cc2)n1 [24e]
58.1 µM
Nc1nc(N)c2c(n1)NC(c1ccc(F)cc1)CC(c1ccc(Nc3nc(NCCO)nc(Nc4ccc(Cl)cc4)n3)cc1)=N2 (stereo not shown) [33f]
> 100 µM
CN(C)c1nc(NCCNS(=O)(=O)c2ccc(C(=O)/C=C/c3ccc(C(F)(F)F)cc3)cc2)nc(N2CCOCC2)n1 [23g]
> 100 µM
Nc1nc(N)c2c(n1)NC(c1ccc(Cl)cc1)CC(c1ccc(Nc3nc(NCCO)nc(Nc4ccc(Cl)cc4)n3)cc1)=N2 (stereo not shown) [33e]
> 100 µM
COc1cc(/C=C/C(=O)c2ccc(C)cc2)ccc1Oc1nc(NCCO)nc(N2CCOCC2)n1 [20b]
> 100 µM
CN(C)c1nc(NCCNS(=O)(=O)c2ccc(C(=O)/C=C/c3ccccc3)cc2)nc(N2CCOCC2)n1 [23a]
> 100 µM
COc1cc(/C=C/C(=O)c2ccc(S(=O)(=O)NCCNc3nc(Nc4ccc(F)cc4)nc(N(C)C)n3)cc2)cc(OC)c1OC [24d]
> 100 µM
COc1cc(/C=C/C(=O)c2ccc(C)cc2)ccc1Oc1nc(Nc2ccc(F)cc2)nc(N(C)C)n1 [21b]
> 100 µM
CN(C)c1nc(NCCNS(=O)(=O)c2ccc(C3=Nc4c(N)nc(N)nc4NC(c4ccc(C(F)(F)F)cc4)C3)cc2)nc(Nc2ccc(F)cc2)n1 (stereo not shown) [31g]
86 µM
CN(C)c1nc(NCCNS(=O)(=O)c2ccc(C(=O)/C=C/c3ccccc3)cc2)nc(Nc2ccc(F)cc2)n1 [24a]
> 100 µM
CN(C)c1nc(NCCNS(=O)(=O)c2ccc(C(=O)/C=C/c3ccc(Cl)cc3)cc2)nc(N2CCOCC2)n1 [23e]
> 100 µM
COc1ccc(/C=C/C(=O)c2ccc(S(=O)(=O)NCCNc3nc(Nc4ccc(F)cc4)nc(N(C)C)n3)cc2)cc1 [24c]
> 100 µM
CN(C)c1nc(NCCNS(=O)(=O)c2ccc(C(=O)/C=C/c3ccc(C(F)(F)F)cc3)cc2)nc(Nc2ccc(F)cc2)n1 [24g]
49.5 µM
COc1cc(/C=C/C(=O)c2ccccc2)ccc1Oc1nc(Nc2ccc(F)cc2)nc(N(C)C)n1 [21a]
> 100 µM
CN(C)c1nc(NCCNS(=O)(=O)c2ccc(C(=O)/C=C/c3ccc(F)cc3)cc2)nc(Nc2ccc(F)cc2)n1 [24f]
71.5 µM
COc1cc(/C=C/C(=O)c2cc(OC)c(OC)c(OC)c2)ccc1Oc1nc(Nc2ccc(F)cc2)nc(N(C)C)n1 [21d]
> 100 µM
Nc1nc(N)c2c(n1)NC(c1ccccc1)CC(c1ccc(Nc3nc(NCCO)nc(Nc4ccc(Cl)cc4)n3)cc1)=N2 (stereo not shown) [33a]
> 100 µM
Cc1ccc(C2CC(c3ccc(S(=O)(=O)NCCNc4nc(Nc5ccc(F)cc5)nc(N(C)C)n4)cc3)=Nc3c(N)nc(N)nc3N2)cc1 (stereo not shown) [31b]
> 100 µM

###

Reported CC50 by item:
System: UO-31
Assay: cells
Conditions: Homo sapiens, UO-31, 48 h, read-out: LC50
assay_endpoint: CC50 (µM)

COc1cc(/C=C/C(=O)c2cc(OC)c(OC)c(OC)c2)ccc1Oc1nc(Nc2ccc(F)cc2)nc(N(C)C)n1 [21d]
4.96
Cc1ccc(C2CC(c3ccc(Nc4nc(NCCO)nc(Nc5ccc(Cl)cc5)n4)cc3)=Nc3c(N)nc(N)nc3N2)cc1 (stereo not drawn) [33b]
5.51
CN(C)c1nc(NCCNS(=O)(=O)c2ccc(C(=O)/C=C/c3ccc(C(F)(F)F)cc3)cc2)nc(Nc2ccc(F)cc2)n1 [24g]
19.9
CN(C)c1nc(NCCNS(=O)(=O)c2ccc(C(=O)/C=C/c3ccc(C(F)(F)F)cc3)cc2)nc(N2CCOCC2)n1 [23g]
49.2
Cc1ccc(/C=C/C(=O)c2ccc(S(=O)(=O)NCCNc3nc(Nc4ccc(F)cc4)nc(N(C)C)n3)cc2)cc1 [24b]
44.7
CN(C)c1nc(NCCNS(=O)(=O)c2ccc(C(=O)/C=C/c3ccccc3)cc2)nc(N2CCOCC2)n1 [23a]
55.7
CN(C)c1nc(NCCNS(=O)(=O)c2ccc(C(=O)/C=C/c3ccc(Cl)cc3)cc2)nc(N2CCOCC2)n1 [23e]
48.4
Nc1nc(N)c2c(n1)NC(c1ccc(C(F)(F)F)cc1)CC(c1ccc(Nc3nc(NCCO)nc(Nc4ccc(Cl)cc4)n3)cc1)=N2 (stereo not drawn) [33g]
5.3
CN(C)c1nc(NCCNS(=O)(=O)c2ccc(C(=O)/C=C/c3ccccc3)cc2)nc(Nc2ccc(F)cc2)n1 [24a]
41.9
Nc1nc(N)c2c(n1)NC(c1ccccc1)CC(c1ccc(Nc3nc(NCCO)nc(Nc4ccc(Cl)cc4)n3)cc1)=N2 (stereo not drawn) [33a]
9.83
COc1cc(/C=C/C(=O)c2ccc(S(=O)(=O)NCCNc3nc(N(C)C)nc(N4CCOCC4)n3)cc2)cc(OC)c1OC [23d]
6.32

###

System: HCC-2998
Assay: cells
Conditions: Homo sapiens, HCC 2998, 48 h
Reported values of GI50 for individual entries
assay_endpoint: GI50 (µM)

COc1ccc(/C=C/C(=O)c2ccc(S(=O)(=O)NCCNc3nc(Nc4ccc(F)cc4)nc(N(C)C)n3)cc2)cc1 [24c]
5.47
CN(C)c1nc(NCCNS(=O)(=O)c2ccc(C(=O)/C=C/c3ccc(Cl)cc3)cc2)nc(Nc2ccc(F)cc2)n1 [24e]
2.48
COc1cc(C2CC(c3ccc(Cl)cc3)=Nc3c(N)nc(N)nc3N2)ccc1Oc1nc(Nc2ccc(F)cc2)nc(N(C)C)n1 (stereo not shown) [29e]
45.3
CN(C)c1nc(NCCNS(=O)(=O)c2ccc(C(=O)/C=C/c3ccccc3)cc2)nc(N2CCOCC2)n1 [23a]
16.7
Cc1ccc(C2CC(c3ccc(S(=O)(=O)NCCNc4nc(Nc5ccc(F)cc5)nc(N(C)C)n4)cc3)=Nc3c(N)nc(N)nc3N2)cc1 (stereo not shown) [31b]
2.93
CN(C)c1nc(NCCNS(=O)(=O)c2ccc(C3=Nc4c(N)nc(N)nc4NC(c4ccccc4)C3)cc2)nc(Nc2ccc(F)cc2)n1 (stereo not shown) [31a]
11.7
Nc1nc(N)c2c(n1)NC(c1ccc(C(F)(F)F)cc1)CC(c1ccc(Nc3nc(NCCO)nc(Nc4ccc(Cl)cc4)n3)cc1)=N2 (stereo not shown) [33g]
1.31

###

Tested on: SR
Test: cells
Conditions: Homo sapiens, 48 h, read-out: LC50
assay_endpoint: CC50

COc1cc(/C=C/C(=O)c2cc(OC)c(OC)c(OC)c2)ccc1Oc1nc(NCCO)nc(N2CCOCC2)n1 [20d]
> 100 µM
Nc1nc(N)c2c(n1)NC(c1ccc(C(F)(F)F)cc1)CC(c1ccc(Nc3nc(NCCO)nc(Nc4ccc(Cl)cc4)n3)cc1)=N2 (centres unmarked) [33g]
> 100 µM
Nc1nc(N)c2c(n1)NC(c1ccc(Cl)cc1)CC(c1ccc(Nc3nc(NCCO)nc(Nc4ccc(Cl)cc4)n3)cc1)=N2 (centres unmarked) [33e]
> 100 µM
COc1cc(/C=C/C(=O)c2ccccc2)ccc1Oc1nc(Nc2ccc(F)cc2)nc(N(C)C)n1 [21a]
> 100 µM
CN(C)c1nc(NCCNS(=O)(=O)c2ccc(C(=O)/C=C/c3ccccc3)cc2)nc(Nc2ccc(F)cc2)n1 [24a]
> 100 µM
COc1cc(/C=C/C(=O)c2ccc(C)cc2)ccc1Oc1nc(NCCO)nc(N2CCOCC2)n1 [20b]
> 100 µM
Cc1ccc(C2CC(c3ccc(Nc4nc(NCCO)nc(Nc5ccc(Cl)cc5)n4)cc3)=Nc3c(N)nc(N)nc3N2)cc1 (centres unmarked) [33b]
> 100 µM
Cc1ccc(/C=C/C(=O)c2ccc(S(=O)(=O)NCCNc3nc(Nc4ccc(F)cc4)nc(N(C)C)n3)cc2)cc1 [24b]
> 100 µM
COc1cc(/C=C/C(=O)c2cc(OC)c(OC)c(OC)c2)ccc1Oc1nc(Nc2ccc(F)cc2)nc(N(C)C)n1 [21d]
> 100 µM
CN(C)c1nc(NCCNS(=O)(=O)c2ccc(C(=O)/C=C/c3ccccc3)cc2)nc(N2CCOCC2)n1 [23a]
> 100 µM
Nc1nc(N)c2c(n1)NC(c1ccc(F)cc1)CC(c1ccc(Nc3nc(NCCO)nc(Nc4ccc(Cl)cc4)n3)cc1)=N2 (centres unmarked) [33f]
> 100 µM
CN(C)c1nc(NCCNS(=O)(=O)c2ccc(C(=O)/C=C/c3ccc(Cl)cc3)cc2)nc(N2CCOCC2)n1 [23e]
> 100 µM
CN(C)c1nc(NCCNS(=O)(=O)c2ccc(C(=O)/C=C/c3ccc(F)cc3)cc2)nc(N2CCOCC2)n1 [23f]
> 100 µM
CN(C)c1nc(NCCNS(=O)(=O)c2ccc(C3=Nc4c(N)nc(N)nc4NC(c4ccc(C(F)(F)F)cc4)C3)cc2)nc(N2CCOCC2)n1 (centres unmarked) [30g]
> 100 µM
COc1ccc(/C=C/C(=O)c2ccc(S(=O)(=O)NCCNc3nc(Nc4ccc(F)cc4)nc(N(C)C)n3)cc2)cc1 [24c]
> 100 µM
CN(C)c1nc(NCCNS(=O)(=O)c2ccc(C(=O)/C=C/c3ccc(C(F)(F)F)cc3)cc2)nc(N2CCOCC2)n1 [23g]
> 100 µM
COc1cc(C2CC(c3ccc(Cl)cc3)=Nc3c(N)nc(N)nc3N2)ccc1Oc1nc(Nc2ccc(F)cc2)nc(N(C)C)n1 (centres unmarked) [29e]
> 100 µM
COc1cc(/C=C/C(=O)c2ccc(S(=O)(=O)NCCNc3nc(Nc4ccc(F)cc4)nc(N(C)C)n3)cc2)cc(OC)c1OC [24d]
> 100 µM
COc1cc(/C=C/C(=O)c2ccc(S(=O)(=O)NCCNc3nc(N(C)C)nc(N4CCOCC4)n3)cc2)cc(OC)c1OC [23d]
> 100 µM
COc1cc(/C=C/C(=O)c2ccc(C)cc2)ccc1Oc1nc(Nc2ccc(F)cc2)nc(N(C)C)n1 [21b]
> 100 µM
